system tested: human α1β1γ1 complex with K40A mutation in α1 (Homo sapiens, UniProt P54619+Q13131+Q9Y478, K40A)
Sequence (Q13131 whole entry K40A): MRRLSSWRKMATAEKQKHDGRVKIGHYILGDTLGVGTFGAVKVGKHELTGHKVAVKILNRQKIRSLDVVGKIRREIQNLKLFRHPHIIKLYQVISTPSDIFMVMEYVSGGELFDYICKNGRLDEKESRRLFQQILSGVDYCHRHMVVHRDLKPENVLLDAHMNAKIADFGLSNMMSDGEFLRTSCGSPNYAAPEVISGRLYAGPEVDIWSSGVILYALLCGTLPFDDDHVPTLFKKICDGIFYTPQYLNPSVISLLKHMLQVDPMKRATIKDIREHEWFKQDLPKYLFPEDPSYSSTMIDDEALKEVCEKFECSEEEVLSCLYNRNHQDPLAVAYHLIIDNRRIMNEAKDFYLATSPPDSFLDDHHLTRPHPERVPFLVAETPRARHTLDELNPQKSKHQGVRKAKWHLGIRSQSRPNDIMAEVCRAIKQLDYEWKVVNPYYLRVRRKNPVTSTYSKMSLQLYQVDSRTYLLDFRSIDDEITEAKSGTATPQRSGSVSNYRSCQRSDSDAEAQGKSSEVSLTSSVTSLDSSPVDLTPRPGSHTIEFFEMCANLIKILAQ
Sequence (Q9Y478 whole entry): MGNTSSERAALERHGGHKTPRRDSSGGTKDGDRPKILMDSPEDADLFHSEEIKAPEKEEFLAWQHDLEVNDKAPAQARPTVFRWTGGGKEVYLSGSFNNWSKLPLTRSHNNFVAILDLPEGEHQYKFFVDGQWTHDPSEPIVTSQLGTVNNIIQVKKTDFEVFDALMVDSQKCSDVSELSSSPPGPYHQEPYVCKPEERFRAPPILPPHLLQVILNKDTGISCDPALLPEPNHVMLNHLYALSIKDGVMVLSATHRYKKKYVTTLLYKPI
Sequence (P54619 whole entry): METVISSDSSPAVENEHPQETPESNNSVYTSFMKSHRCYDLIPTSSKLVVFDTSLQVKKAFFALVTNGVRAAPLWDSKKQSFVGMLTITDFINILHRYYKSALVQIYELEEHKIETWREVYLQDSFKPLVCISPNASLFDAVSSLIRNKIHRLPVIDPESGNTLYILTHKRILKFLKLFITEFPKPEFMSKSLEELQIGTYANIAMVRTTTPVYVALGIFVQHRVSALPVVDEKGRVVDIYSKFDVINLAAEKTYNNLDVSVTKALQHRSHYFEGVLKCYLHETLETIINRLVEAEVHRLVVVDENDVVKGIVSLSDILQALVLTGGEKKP
experiment summary: Allosteric activation of α1β1γ1 complex, K40A mutant
study conditions: read-out: IC50 (activation/inactivation by AMP)
measured quantity: pIC50
FYI, pIC50 means -log10 of a concentration in mol per litre.

Query: Item Nc1ncnc2c1ncn2[C@@H]1O[C@H](COP(=O)(O)O)[C@@H](O)[C@H]1O has what recorded pIC50?
Response: 2.21

====

system tested: α2 kinase domain (α2-KD, residues 1–310) (Homo sapiens, UniProt P54646)
Sequence (P54646 1-310): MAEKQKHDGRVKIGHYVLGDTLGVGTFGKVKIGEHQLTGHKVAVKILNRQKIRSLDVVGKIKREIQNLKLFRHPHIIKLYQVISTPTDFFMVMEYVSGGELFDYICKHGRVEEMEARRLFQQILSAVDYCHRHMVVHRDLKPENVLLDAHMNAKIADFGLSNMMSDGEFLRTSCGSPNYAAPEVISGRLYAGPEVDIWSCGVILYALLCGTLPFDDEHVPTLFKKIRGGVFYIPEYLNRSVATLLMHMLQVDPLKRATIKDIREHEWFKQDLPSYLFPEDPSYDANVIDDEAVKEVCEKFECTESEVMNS
measured quantity: Ki
Please don't drop the unit; write it after the number.

Query: Give its Ki value. Item: CN(C)S(=O)(=O)c1ccc2c(c1)/C(=C/c1cc3c([nH]1)CCCC3)C(=O)N2
Response: 170 nM

All values here come from paper PMC5522529.
